experiment: Cytotoxicity against mouse B16F10 cells assessed as cell viability at 25 uM after 24 hrs by MTT assay relative to control; type: cell-based, B16-F10; settings: read-out: Activity
metric: viability at 24 h, 25 µM (%)

- N#C/C(=C\c1ccc(O)c(O)c1)C(N)=O: 96.9

====

assay: Cytotoxicity against mouse B16F10 cells assessed as cell viability at 5 uM after 24 hrs by MTT assay relative to control; format: cell-based, B16-F10; conditions: read-out: Activity
metric: viability at 24 h, 5 µM (%)

• N#C/C(=C\c1ccc(O)c(O)c1)C(N)=O = 99.6

====

assay: Cytotoxicity against mouse B16F10 cells assessed as cell viability at 10 uM after 24 hrs by MTT assay relative to control; assay type: cell-based, B16-F10; settings: read-out: Activity
metric: viability at 24 h, 10 µM (%)

• N#C/C(=C\c1ccc(O)c(O)c1)C(N)=O = 98.6
